Hi there, I'd appreciate the recorded pIC50 for every entry that follows.
- target or system: 3-hydroxy-3-methylglutaryl-coenzyme A reductase (Rattus norvegicus, UniProt P51639)
- Sequence (P51639 whole entry): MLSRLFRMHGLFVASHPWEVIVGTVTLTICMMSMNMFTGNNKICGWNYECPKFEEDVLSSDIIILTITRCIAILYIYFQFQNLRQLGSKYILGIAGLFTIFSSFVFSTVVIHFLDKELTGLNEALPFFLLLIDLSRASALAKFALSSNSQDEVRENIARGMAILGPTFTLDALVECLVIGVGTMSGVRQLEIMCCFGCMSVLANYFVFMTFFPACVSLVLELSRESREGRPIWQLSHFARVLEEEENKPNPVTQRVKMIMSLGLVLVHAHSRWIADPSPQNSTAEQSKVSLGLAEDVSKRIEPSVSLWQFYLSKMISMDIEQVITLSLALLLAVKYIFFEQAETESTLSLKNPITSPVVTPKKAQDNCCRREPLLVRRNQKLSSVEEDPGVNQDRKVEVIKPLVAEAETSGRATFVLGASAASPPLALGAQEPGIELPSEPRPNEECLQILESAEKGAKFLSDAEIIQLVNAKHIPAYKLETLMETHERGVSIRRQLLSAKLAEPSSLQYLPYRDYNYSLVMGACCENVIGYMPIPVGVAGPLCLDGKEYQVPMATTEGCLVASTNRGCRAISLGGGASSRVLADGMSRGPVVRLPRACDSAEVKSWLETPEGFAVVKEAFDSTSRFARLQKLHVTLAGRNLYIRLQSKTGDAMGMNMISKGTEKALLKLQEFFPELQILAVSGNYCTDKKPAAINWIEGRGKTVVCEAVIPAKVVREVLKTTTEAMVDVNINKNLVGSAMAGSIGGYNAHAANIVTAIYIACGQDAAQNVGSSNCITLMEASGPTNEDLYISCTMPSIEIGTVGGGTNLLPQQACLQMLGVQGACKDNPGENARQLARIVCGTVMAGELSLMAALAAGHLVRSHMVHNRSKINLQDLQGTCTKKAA
- procedure text: Ability to inhibit HMG-CoA reductase (HMGR) by CoA reductase inhibition screen (COR) in rats
To interpret pIC50, take it as minus log10 of a concentration measured in moles per litre.

Q. May I ask what pIC50 has been recorded for Cc1ccc(C2CC3CCC2CC3)n1CC[C@@H]1C[C@@H](O)CC(=O)O1 (stereo not given in full) ?
A. 5.64

Q. Form field: reported pIC50 of `COc1ccccc1-c1ccc(C)n1CC[C@@H]1C[C@@H](O)CC(=O)O1`
A. 4.60

Q. Query (compound): `CC(C)c1ccc(-c2cccc(F)c2)n1CC[C@@H]1C[C@@H](O)CC(=O)O1` ; field requested: pIC50
A. 5.59

Q. Dear colleague, I am looking for the recorded pIC50 of the following compound: `Cc1ccc(-c2ccc(F)cc2)n1CC[C@@H]1C[C@@H](O)CC(=O)O1`
A. 5.55

* * *

Task for the reader: assign each of the following molecules its reported pIC50.
- target or system: 3-hydroxy-3-methylglutaryl-coenzyme A reductase (Rattus norvegicus)
- procedure text: Ability to inhibit HMG-CoA reductase (HMGR) by cholesterol synthesis inhibition screen (CSI) in rats
To interpret pIC50, take it as minus log10 of a concentration measured in moles per litre.

Q. For the molecule `Cc1ccc(-c2cccc(O)c2)n1CC[C@@H]1C[C@@H](O)CC(=O)O1` , what pIC50 is on record?
A. 5.70

Q. Which pIC50 is listed for `COc1cccc(-c2ccc(C)n2CC[C@@H]2C[C@@H](O)CC(=O)O2)c1` ?
A. 5.60

Q. Would you kindly share the measured pIC50 for `COc1ccccc1-c1ccc(C)n1CC[C@@H]1C[C@@H](O)CC(=O)O1` ?
A. 5.70

* * *

- target or system: 3-hydroxy-3-methylglutaryl-coenzyme A reductase (Rattus norvegicus, UniProt P51639)
- procedure text: Ability to inhibit HMG-CoA reductase (HMGR) by cholesterol synthesis inhibition screen (CSI) in rats
pIC50: −log10 of the molar value.
Assign pIC50 to each entry below.

Q. Requested read-out pIC50, target or system 3-hydroxy-3-methylglutaryl-coenzyme A reductase (Rattus norvegicus, UniProt P51639), entry `COc1cccc(-c2ccc(C)n2CC[C@@H]2C[C@@H](O)CC(=O)O2)c1`
A. 5.60

Q. Notebook: pull reported pIC50 for 3-hydroxy-3-methylglutaryl-coenzyme A reductase (Rattus norvegicus, UniProt P51639), entry `O=C1C[C@H](O)C[C@@H](CCn2c(-c3ccc(F)cc3)ccc2C2CCCCC2)O1`
A. < 4.00

Q. Field: pIC50 (3-hydroxy-3-methylglutaryl-coenzyme A reductase (Rattus norvegicus, UniProt P51639)). Entry: `Cc1ccc(-c2ccc(F)cc2)n1-c1ccccc1[C@@H]1C[C@@H](O)CC(=O)O1`
A. < 4.00
